System: Brain
Test: Antioxidant activity against toxin solution-induced lipid peroxidation in Sprague-Dawley rat brain homogenates assessed as free MDA levels per mg of tissue at 0.1 by TBARS assay
Format: functional, tissue-based
Hi! Could you tag entries with Activity below 0.8 nmol as y, and those at or above as n? Much appreciated.

Smiles Representation: Oc1cccc2cccnc12
Target Desc: Brain
Group: n

Exercise: Please determine if Oc1cc(-c2ccccc2)nc2ccccc12 is below 0.8 nmol in terms of Activity.
Solution: n

Exercise: Also need O=c1cc(-c2ccccc2)oc2ccccc12 , thanks.
Solution: n

Exercise: Also need c1ccc2ncccc2c1 , thanks.
Solution: y

Exercise: Also need Oc1ccnc2ccccc12 , thanks.
Solution: n

Exercise: Also need Oc1ccc2nc(-c3ccccc3)cc(O)c2c1 , thanks.
Solution: y

====

System: Brain
Experiment: Antioxidant activity against toxin solution-induced lipid peroxidation in Sprague-Dawley rat brain homogenates assessed as free MDA levels per mg of tissue at 0.1 by TBARS assay
Type: functional, tissue-based
Endpoint Name: Activity (nmol)
Give the number; nmol is assumed, so skip it.

Below, each entry is followed by its recorded Activity result.
Smiles Representation: O=c1cc(-c2ccccc2)oc2ccc(O)cc12
Value Units: nmol
Endpoint Result: 0.79
--
Smiles Representation: O=c1cc(-c2ccccc2)oc2cc(O)ccc12
Value Units: nmol
Endpoint Result: 0.48
--
Smiles Representation: Oc1cc(-c2ccccc2)nc2c(O)cccc12
Value Units: nmol
Endpoint Result: 0.49

Exercise: Fill blank: measured Activity of the molecule Oc1ccc2c(O)cc(-c3ccccc3)nc2c1 is ____.
Solution: 0.71
